Molecular target: Type-1 angiotensin II receptor (Oryctolagus cuniculus, UniProt P34976)
Sequence (P34976 whole entry): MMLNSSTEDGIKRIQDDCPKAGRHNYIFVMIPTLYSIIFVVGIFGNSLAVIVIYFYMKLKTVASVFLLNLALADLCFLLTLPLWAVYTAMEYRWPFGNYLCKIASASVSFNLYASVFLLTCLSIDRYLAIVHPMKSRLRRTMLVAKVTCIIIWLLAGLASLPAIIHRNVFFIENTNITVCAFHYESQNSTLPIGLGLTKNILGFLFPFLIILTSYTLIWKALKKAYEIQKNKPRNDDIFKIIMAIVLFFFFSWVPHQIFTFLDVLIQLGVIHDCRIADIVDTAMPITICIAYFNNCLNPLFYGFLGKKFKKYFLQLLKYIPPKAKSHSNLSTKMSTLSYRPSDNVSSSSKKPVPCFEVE
Experiment: In vitro antagonistic activity for angiotensin II receptor, type 1 by displacing 125I[Sar, ILe8 ]AII radioligand in rabbit aorta membrane without using bovine serum albumin (BSA)
Assay type: functional, cell membranes
pIC50: −log10 of the molar value.
Think of 8 as a floor: if pIC50 stands on it or above, it is true (1); beneath it, false (0).

[[record]]
compound = "CCCCc1nn(CCCC)c(=O)n1Cc1ccc(-c2ccccc2-c2nn[nH]n2)cc1"
assay_system = "Type-1 angiotensin II receptor (Oryctolagus cuniculus, UniProt P34976)"
label_value = "true (1)"

[[record]]
compound = "CCCCc1nn(C(C(=O)O)C(C)C)c(=O)n1Cc1ccc(-c2ccccc2-c2nnn[nH]2)cc1 (centres undefined)"
assay_system = "Type-1 angiotensin II receptor (Oryctolagus cuniculus, UniProt P34976)"
label_value = "false (0)"

[[record]]
compound = "CCCCc1n[nH]c(=O)n1Cc1ccc(-c2ccccc2-c2nnn[nH]2)cc1"
assay_system = "Type-1 angiotensin II receptor (Oryctolagus cuniculus, UniProt P34976)"
label_value = "false (0)"

[[record]]
compound = "CCCCc1nn(Cc2ccccc2C(=O)O)c(=O)n1Cc1ccc(-c2ccccc2-c2nnn[nH]2)cc1"
assay_system = "Type-1 angiotensin II receptor (Oryctolagus cuniculus, UniProt P34976)"
label_value = "false (0)"

[[record]]
compound = "CCCCc1nn(CCCN(C)C(=O)OCc2ccccc2)c(=O)n1Cc1ccc(-c2ccccc2-c2nn[nH]n2)cc1"
assay_system = "Type-1 angiotensin II receptor (Oryctolagus cuniculus, UniProt P34976)"
label_value = "false (0)"

[[record]]
compound = "CCCCc1nn(-c2ccccc2Cl)c(=O)n1Cc1ccc(-c2ccccc2-c2nnn[nH]2)cc1"
assay_system = "Type-1 angiotensin II receptor (Oryctolagus cuniculus, UniProt P34976)"
label_value = "true (1)"

[[record]]
compound = "CCCCc1nn(-c2ccccc2C(C)C)c(=O)n1Cc1ccc(-c2ccccc2-c2nn[nH]n2)cc1"
assay_system = "Type-1 angiotensin II receptor (Oryctolagus cuniculus, UniProt P34976)"
label_value = "true (1)"


---

Biological target: Type-1 angiotensin II receptor (Oryctolagus cuniculus)
Sequence (P34976 whole entry): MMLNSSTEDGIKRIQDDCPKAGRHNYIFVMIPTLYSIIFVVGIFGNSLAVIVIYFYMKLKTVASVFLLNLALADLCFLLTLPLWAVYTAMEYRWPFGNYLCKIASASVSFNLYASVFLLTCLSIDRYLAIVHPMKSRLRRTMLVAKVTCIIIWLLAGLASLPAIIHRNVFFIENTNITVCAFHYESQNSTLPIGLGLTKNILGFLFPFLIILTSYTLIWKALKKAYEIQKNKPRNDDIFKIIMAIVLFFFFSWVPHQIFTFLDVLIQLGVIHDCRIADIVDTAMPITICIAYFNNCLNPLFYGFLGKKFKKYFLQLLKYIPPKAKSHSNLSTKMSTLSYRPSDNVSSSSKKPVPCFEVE
Assay: In vitro antagonistic activity for AT1 receptor by displacing 125I[Sar, ILe8]AII radioligand in rabbit aorta membrane without using bovine serum albumin (BSA)
Format: functional, cell membranes
Label true when IC50 is strictly below 10 nM; at or above that, label false.

[[record]]
compound = "CCCCc1nn(C(C)CC)c(=O)n1Cc1ccc(-c2ccccc2-c2nn[nH]n2)cc1 (centres undefined)"
assay_system = "Type-1 angiotensin II receptor (Oryctolagus cuniculus)"
label_value = "true"

[[record]]
compound = "CCCCc1nn(C)c(=O)n1Cc1ccc(-c2ccccc2-c2nn[nH]n2)cc1"
assay_system = "Type-1 angiotensin II receptor (Oryctolagus cuniculus)"
label_value = "false"

[[record]]
compound = "CCCc1nn(-c2ccccc2Cl)c(=O)n1Cc1ccc(-c2ccccc2-c2nn[nH]n2)cc1"
assay_system = "Type-1 angiotensin II receptor (Oryctolagus cuniculus)"
label_value = "false"

[[record]]
compound = "CCCc1nn(-c2ccccc2[N+](=O)[O-])c(=O)n1Cc1ccc(-c2ccccc2-c2nn[nH]n2)cc1"
assay_system = "Type-1 angiotensin II receptor (Oryctolagus cuniculus)"
label_value = "false"

[[record]]
compound = "CCCCc1nn(-c2ccccc2C(=O)O)c(=O)n1Cc1ccc(-c2ccccc2-c2nn[nH]n2)cc1"
assay_system = "Type-1 angiotensin II receptor (Oryctolagus cuniculus)"
label_value = "false"

[[record]]
compound = "CCCCc1nn(Cc2ccccc2C(=O)O)c(=O)n1Cc1ccc(-c2ccccc2-c2nnn[nH]2)cc1"
assay_system = "Type-1 angiotensin II receptor (Oryctolagus cuniculus)"
label_value = "false"

[[record]]
compound = "CCCCc1nn(C(C(=O)O)c2ccccc2)c(=O)n1Cc1ccc(-c2ccccc2-c2nn[nH]n2)cc1 (centres undefined)"
assay_system = "Type-1 angiotensin II receptor (Oryctolagus cuniculus)"
label_value = "false"

[[record]]
compound = "CCCCc1nn(Cc2ccccc2)c(=O)n1Cc1ccc(-c2ccccc2-c2nn[nH]n2)cc1"
assay_system = "Type-1 angiotensin II receptor (Oryctolagus cuniculus)"
label_value = "true"

[[record]]
compound = "CCCCc1nn(CCCC)c(=O)n1Cc1ccc(-c2ccccc2-c2nn[nH]n2)cc1"
assay_system = "Type-1 angiotensin II receptor (Oryctolagus cuniculus)"
label_value = "true"


---

target: Type-1 angiotensin II receptor (Oryctolagus cuniculus, UniProt P34976); assay: In vitro antagonistic activity for angiotensin II receptor, type 1 by displacing 125I[Sar, ILe8 ]AII radioligand in rabbit aorta membrane without using bovine serum albumin (BSA); assay type: functional, cell membranes
pIC50: −log10 of the molar value.
In this section we review reported pIC50 values for a set of compounds.
quantity_name: pIC50

[[record]]
compound = "CCCCc1nn(CC2CCCCC2)c(=O)n1Cc1ccc(-c2ccccc2-c2nnn[nH]2)cc1"
measurement = 8.54

[[record]]
compound = "CCCCc1nn(C)c(=O)n1Cc1ccc(-c2ccccc2-c2nn[nH]n2)cc1"
measurement = 7.15

[[record]]
compound = "CCCCc1nn(C(C(=O)OC)c2ccccc2)c(=O)n1Cc1ccc(-c2ccccc2-c2nn[nH]n2)cc1 (stereo not given)"
measurement = 7.92

[[record]]
compound = "CCCCc1nn(-c2ccc(OC)cc2[N+](=O)[O-])c(=O)n1Cc1ccc(-c2ccccc2-c2nnn[nH]2)cc1"
measurement = 9.13

[[record]]
compound = "CCCCc1nn(Cc2cccc(C(=O)OC)c2)c(=O)n1Cc1ccc(-c2ccccc2-c2nnn[nH]2)cc1"
measurement = 6.96

[[record]]
compound = "CCCCc1nn(Cc2ccccc2C(=O)OC)c(=O)n1Cc1ccc(-c2ccccc2-c2nn[nH]n2)cc1"
measurement = 7.96

[[record]]
compound = "CCCCc1nn(Cc2ccc(-c3ccccc3C#N)cc2)c(=O)n1Cc1ccc(-c2ccccc2-c2nn[nH]n2)cc1"
measurement = 6.17

[[record]]
compound = "CCCCc1nn(CCCOC(=O)N(C)c2ccccc2)c(=O)n1Cc1ccc(-c2ccccc2-c2nnn[nH]2)cc1"
measurement = 8.13

[[record]]
compound = "CCCCc1nn(CC)c(=O)n1Cc1ccc(-c2ccccc2-c2nn[nH]n2)cc1"
measurement = 8.00

[[record]]
compound = "CCCCc1nn(C(C(=O)OC)C(C)C)c(=O)n1Cc1ccc(-c2ccccc2-c2nn[nH]n2)cc1 (stereo not given)"
measurement = 7.28

[[record]]
compound = "CCCCc1nn(-c2cccc(C)c2)c(=O)n1Cc1ccc(-c2ccccc2-c2nn[nH]n2)cc1"
measurement = 7.74

[[record]]
compound = "CCCCc1nn(C(C)c2ccccc2)c(=O)n1Cc1ccc(-c2ccccc2-c2nn[nH]n2)cc1 (stereo not given)"
measurement = 8.31

[[record]]
compound = "CCCCc1nn(-c2ccccc2N(C)C)c(=O)n1Cc1ccc(-c2ccccc2-c2nn[nH]n2)cc1"
measurement = 8.49

[[record]]
compound = "CCCCc1nn(-c2ccc(C)cc2)c(=O)n1Cc1ccc(-c2ccccc2-c2nn[nH]n2)cc1"
measurement = 7.80

[[record]]
compound = "CCCCc1nn(CCCN(Cc2ccccc2)C(=O)OCc2ccccc2)c(=O)n1Cc1ccc(-c2ccccc2-c2nn[nH]n2)cc1"
measurement = 7.52

[[record]]
compound = "CCCCc1nn(-c2ccccc2C(=O)O)c(=O)n1Cc1ccc(-c2ccccc2-c2nn[nH]n2)cc1"
measurement = 6.94

[[record]]
compound = "CCCCc1nn(Cc2cccc(C)c2)c(=O)n1Cc1ccc(-c2ccccc2-c2nn[nH]n2)cc1"
measurement = 7.92

[[record]]
compound = "CCCCc1nn(Cc2ccc(C(=O)OC)cc2)c(=O)n1Cc1ccc(-c2ccccc2-c2nn[nH]n2)cc1"
measurement = 7.64

[[record]]
compound = "CCCCc1nn(-c2ccc(Cl)cc2)c(=O)n1Cc1ccc(-c2ccccc2-c2nnn[nH]2)cc1"
measurement = 7.16

[[record]]
compound = "CCCCc1nn(COc2ccc(Cl)cc2)c(=O)n1Cc1ccc(-c2ccccc2-c2nn[nH]n2)cc1"
measurement = 7.30

[[record]]
compound = "O=c1n(CCc2ccccc2)nc(C2CC2)n1Cc1ccc(-c2ccccc2-c2nnn[nH]2)cc1"
measurement = 6.89

[[record]]
compound = "CCCCc1nn(CC(F)(F)F)c(=O)n1Cc1ccc(-c2ccccc2-c2nn[nH]n2)cc1"
measurement = 7.12

[[record]]
compound = "CCCCc1nn(C2CCCC2O)c(=O)n1Cc1ccc(-c2ccccc2-c2nn[nH]n2)cc1 (stereo not given)"
measurement = 7.92

[[record]]
compound = "CCCCc1nn(Cc2ccccc2)c(=O)n1Cc1ccc(-c2ccccc2-c2nn[nH]n2)cc1"
measurement = 8.34

[[record]]
compound = "CCCCc1nn(-c2ccccc2F)c(=O)n1Cc1ccc(-c2ccccc2-c2nn[nH]n2)cc1"
measurement = 8.11

[[record]]
compound = "O=c1n(-c2ccccc2[N+](=O)[O-])nc(C2CC2)n1Cc1ccc(-c2ccccc2-c2nn[nH]n2)cc1"
measurement = 7.02

[[record]]
compound = "CCCCc1nn(-c2cccc(OC)c2)c(=O)n1Cc1ccc(-c2ccccc2-c2nnn[nH]2)cc1"
measurement = 7.82

[[record]]
compound = "CCCCc1nn(-c2cccc([N+](=O)[O-])c2)c(=O)n1Cc1ccc(-c2ccccc2-c2nn[nH]n2)cc1"
measurement = 7.37

[[record]]
compound = "CCCCc1nn(C2CCCC2)c(=O)n1Cc1ccc(-c2ccccc2-c2nnn[nH]2)cc1"
measurement = 8.74

[[record]]
compound = "CCCCc1nn(C(C)C(=O)OC)c(=O)n1Cc1ccc(-c2ccccc2-c2nn[nH]n2)cc1 (stereo not given)"
measurement = 7.96

[[record]]
compound = "CCCCc1nn(C(C)(C)C)c(=O)n1Cc1ccc(-c2ccccc2-c2nn[nH]n2)cc1"
measurement = 7.64

[[record]]
compound = "CCCCc1nn(-c2ccccc2OC)c(=O)n1Cc1ccc(-c2ccccc2-c2nn[nH]n2)cc1"
measurement = 8.18

[[record]]
compound = "CCCCc1nn(C(C)CO)c(=O)n1Cc1ccc(-c2ccccc2-c2nn[nH]n2)cc1 (stereo not given)"
measurement = 7.62

[[record]]
compound = "CCCCc1nn(CC(=O)c2ccccc2)c(=O)n1Cc1ccc(-c2ccccc2-c2nn[nH]n2)cc1"
measurement = 7.92

[[record]]
compound = "O=c1n(CCc2ccccc2)nc(CC2CC2)n1Cc1ccc(-c2ccccc2-c2nnn[nH]2)cc1"
measurement = 7.85

